// reported Ki for each item listed
Protein target, amino acids: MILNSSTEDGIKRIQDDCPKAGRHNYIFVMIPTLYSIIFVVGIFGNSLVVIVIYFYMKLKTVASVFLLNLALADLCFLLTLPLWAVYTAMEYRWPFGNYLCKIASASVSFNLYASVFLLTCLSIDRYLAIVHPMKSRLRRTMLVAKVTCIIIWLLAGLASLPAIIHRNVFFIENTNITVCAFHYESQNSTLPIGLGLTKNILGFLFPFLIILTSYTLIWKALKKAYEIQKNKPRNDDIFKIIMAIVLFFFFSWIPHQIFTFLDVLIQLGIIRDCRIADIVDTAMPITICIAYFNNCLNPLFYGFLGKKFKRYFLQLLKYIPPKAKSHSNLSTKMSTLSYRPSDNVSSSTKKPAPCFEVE
Just the number please, in nM, no unit attached.

>  <Smiles input>
CCc1nn(Cc2ccc(-c3ccccc3-c3nnn[nH]3)cc2)c(=NC(=O)C2=C(C(=O)O)CCC2)s1

>  <Unit label>
nM

>  <Number>
1.24

$$$$

Turning now to a further compound:
Item CCOc1nc2cccc(C(=O)O)c2n1Cc1ccc(-c2ccccc2-c2nnn[nH]2)cc1 has what recorded Ki?
0.17
